Source: the supplement of paper PMC10290057

- Test system: HCT116;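 also: Luminescence-based viability readout, five doses per compound, normalized against on-plate DMSO and empty-well controls, followed by dose-response curve fitting for every drug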
- Protocol: efficacy (fitted maximal change in viability relative to DMSO control); higher = less cytotoxic (negative = loss of viability)
- Reported Conditions: 48 h
So basically: efficacy at -40% or higher? That is Condition met. Lower than -40%? That is Condition not met.

[
  {
    "Molecule": "CN\\1C(=O)/C(=C(\\N=C1NC[C@@H](N)CC2=CC=CC=C2)C3=CC=NC=C3)C4=CC5=C(C=CC=C5)C=C4",
    "Qualitative Label": "Condition not met"
  }
]

hey, is efficacy for this one >= -40%? `CC(=O)[C@]1(N)Cc2c(O)c3c(c(O)c2[C@@H](O[C@H]2C[C@H](O)[C@H](O)CO2)C1)C(=O)c1ccccc1C3=O`
Condition not met

hey, is efficacy for this one >= -40%? `O=C1S/C(=C\c2ccc(OCc3cccc(B(O)O)c3)cc2)C(=O)N1Cc1ccc(F)cc1`
Condition not met

hey, is efficacy for this one >= -40%? CC1=CC=C2\N=C/3N(CC[C@@]3(O)C(=O)C2=C1)C4=CC=CC=C4 [(-)-Blebbistatin]
Condition met

hey, is efficacy for this one >= -40%? C=CC[N+]1([C@H]2C[C@H]3[C@@H]4CC[C@H]5C[C@H](O)[C@@H](N6CCOCC6)C[C@]5(C)[C@H]4CC[C@]3(C)[C@H]2OC(C)=O)CCCC1 [Rocuronium bromide]
Condition met

hey, is efficacy for this one >= -40%? `Cc1ccc(-n2c(C)cc(-c3nnc4n3CCCCC4)c2C)cc1`
Condition not met

hey, is efficacy for this one >= -40%? CC(=O)O[C@H]1C[C@@H]2CC[C@@H]3[C@H](CC[C@@]4(C)[C@H]3C[C@H]([N+]3(C)CCCCC3)[C@@H]4OC(C)=O)[C@@]2(C)C[C@@H]1N1CCCCC1.[Br-] [Vecuronium bromide]
Condition met

hey, is efficacy for this one >= -40%? `CN(C)c1ccc2nc3ccc(N(C)C)cc3[s+]c2c1.[Cl-]`
Condition not met

hey, is efficacy for this one >= -40%? `COc1ccc([S+](=O)([O-])Nc2cccnc2Nc2ccc(O)cc2)cc1`
Condition not met

hey, is efficacy for this one >= -40%? `CC[C@@H]1[C@H](F)C(=O)N[C@@H]1COc1nccc2cc(C(N)=O)c(OC)cc12`
Condition not met

hey, is efficacy for this one >= -40%? `O=C(O)c1cc(O)c2c(c1)C(=O)c1cccc(O)c1C2=O`
Condition met

hey, is efficacy for this one >= -40%? `C[C@@H](Oc1cc(-c2cnn(C3CCNCC3)c2)cnc1N)c1c(Cl)ccc(F)c1Cl`
Condition not met

hey, is efficacy for this one >= -40%? COc1cc(Oc2ccnc3cc(OC)c(OC)cc23)ccc1NC(=O)NC(C)c1nccs1 (stereo not given)
Condition not met
